Tested on: Coprococcus comes
Assay: growth AUC relative to DMSO control (median of replicates) (fraction); higher = more growth (less inhibition), active = hit call of the paper
Details: 20 µM; 24 h
Give YES when the value for growth AUC is at least 1. Give NO when it is less.

Would you please look over these solved cases?
1) Nc1cccc(O)c1 = YES
2) CCc1ccc(O)cc1 = NO
3) O=C(O)Cc1c[nH]c2ccccc12 = YES

// inclusive: growth AUC at least 1? input: N[C@@H](Cc1cc(I)c(Oc2cc(I)c(O)c(I)c2)c(I)c1)C(=O)O
NO

// inclusive: growth AUC at least 1? input: Br[C@@H]1CC[C@H](Br)[C@H](Br)CC[C@@H](Br)[C@@H](Br)CC[C@H]1Br
YES

// inclusive: growth AUC at least 1? input: CC1COc2ccccc2N1C(=O)C(Cl)Cl (stereo not drawn)
NO

###

Tested on: Odoribacter splanchnicus
Assay: growth AUC relative to DMSO control (median of replicates) (fraction); higher = more growth (less inhibition), active = hit call of the paper
Settings: 20 µM; 24 h
Give Yes when the value for growth AUC is at least 1. Give No when it is less.

Would you please look over these solved cases?
1. Cc1cc(C)c(C2=C(O)C3(CCCC3)OC2=O)c(C)c1 = No
2. CC(=O)CC(c1ccccc1)c1c(O)c2ccccc2oc1=O (stereo unspecified) = No
3. Cc1nc(C(F)(F)F)c(C(=O)Nc2c(Br)cc(OC(F)(F)F)cc2Br)s1 = No
4. Oc1ccc2ccccc2c1N=Nc1ccccc1 = Yes
5. CCOC(=O)[C@@H](C)Oc1ccc(Oc2nc3ccc(Cl)cc3o2)cc1 = Yes

// inclusive: growth AUC at least 1? input: Cc1cc(C2CC2)nc(Nc2ccc(O)cc2)n1
No

// inclusive: growth AUC at least 1? input: FC(F)(F)c1cccc(C(c2ccccc2)(c2ccccc2)n2cncn2)c1
Yes

// inclusive: growth AUC at least 1? input: CN(C(=O)NC(C)(C)c1ccccc1)c1ccccc1
Yes

// inclusive: growth AUC at least 1? input: CC(C)N(C(=O)C(=O)O)c1ccccc1
Yes

###

Tested on: Fusobacterium nucleatum subsp. animalis
Assay: growth AUC relative to DMSO control (median of replicates) (fraction); higher = more growth (less inhibition), active = hit call of the paper
Details: 20 µM; 24 h
METRIC_NAME: growth AUC
Give only the figure.

Solved cases below.
1) CC(C)NS(=O)(=O)NC(=O)c1cc(NC(N)=O)c(F)cc1Cl = 1
2) CC(C)OC(=O)c1cc(C(=O)OC(C)C)cc([N+](=O)[O-])c1 = 0.98
3) C#CCN(C)c1c(C#N)cnn1-c1nn2c(c1Cl)CCCC2 = 0.972
4) Cc1cc(C)c(C2=C(O)C3(CCCC3)OC2=O)c(C)c1 = 0.947
5) CC(C)(C)[C@@H](O)[C@@H](Cc1ccc(Cl)cc1)n1cncn1 (mixture of isomers) = 0.975
6) O=C(O)CCCc1c[nH]c2ccccc12 = 0.971
7) O=S(Cc1ccc(Cl)cc1)c1ccc(Cl)cc1 (stereo unspecified) = 0.94
8) COc1nc(C)nc(NC(=O)NS(=O)(=O)c2ccccc2OCCCl)n1 = 0.953

// query growth AUC value for entry O=C(O)Cc1c(Cl)ccc(Cl)c1Cl
0.928

// query growth AUC value for entry C[C@@]1(c2ccccc2)NC(=O)N(Nc2ccccc2)C1=O
1

// query growth AUC value for entry CCCCOCCOC(=O)COc1ccc(Cl)cc1Cl
0.92

###

System: Lactobacillus paracasei
Experiment: growth AUC relative to DMSO control (median of replicates) (fraction); higher = more growth (less inhibition), active = hit call of the paper
Conditions: 20 µM; 24 h
METRIC_NAME: growth AUC
Give only the figure.

Solved cases below.
1) COCCOc1ccccc1S(=O)(=O)NC(=O)Nc1nc(OC)nc(OC)n1 = 1.02
2) CC(C)c1cc(Oc2ccccc2)cc(C(C)C)c1NC(=S)NC(C)(C)C = 1.03
3) CN(C)C(=O)SCCCCOc1ccccc1 = 0.975
4) CC1CN(C2CCCCCCCCCCC2)CC(C)O1 (mixture of isomers) = 1.02
5) O=C(O)Cc1c(Cl)ccc(Cl)c1Cl = 1.03

// query growth AUC value for entry CN(C)c1ccc(N=NS(=O)(=O)[O-])cc1.[Na+]
1.02

// query growth AUC value for entry Nc1cccc(O)c1
0.94

// query growth AUC value for entry O=C(O)[C@@H](S)[C@@H](S)C(=O)O
1.02

// query growth AUC value for entry COc1cc(OC)nc(Sc2cccc3c2C(=O)OC3C)n1 (centres undefined)
1

// query growth AUC value for entry S=C([S-])NCCNC(=S)[S-].[Mn+2]
1.16

###

Tested on: Collinsella aerofaciens
Test: growth AUC relative to DMSO control (median of replicates) (fraction); higher = more growth (less inhibition), active = hit call of the paper
Conditions: 20 µM; 24 h
Listed next: entries and their corresponding growth AUC.

// query growth AUC value for entry CCCCCCCC(=O)Oc1c(Br)cc(C#N)cc1Br
0.971 (inactive)

// query growth AUC value for entry CC(C)CCCCCOC(=O)C(C)Oc1ccc(Cl)cc1Cl (stereo unspecified)
1.02 (inactive)

// query growth AUC value for entry C/C=C/C(=O)Oc1c(C(C)CCCCCC)cc([N+](=O)[O-])cc1[N+](=O)[O-] (mixture of isomers)
0.789 (active)

###

System: Lactobacillus gasseri
Assay: growth AUC relative to DMSO control (median of replicates) (fraction); higher = more growth (less inhibition), active = hit call of the paper
Settings: 20 µM; 24 h
METRIC_NAME: growth AUC
Give only the figure.

Solved cases below.
1. COCC(=O)N(c1c(C)cccc1C(=O)O)C(C)C(=O)O (configuration not stated) = 1.07
2. CCOC(=O)c1ccc(O)cc1 = 0.822
3. COc1nc(NC(=O)NS(=O)(=O)c2ccccc2C(F)(F)F)nc(C(F)(F)F)n1 = 0.899
4. ClC(COCC(Cl)C(Cl)(Cl)Cl)C(Cl)(Cl)Cl (configuration not stated) = 1.11
5. NC(=O)C1CO1 (configuration not stated) = 0.995
6. NS(=O)(=O)[O-].[NH4+] = 0.996

Query the reported growth AUC for Lactobacillus gasseri; item: CCSC(=O)N(CC)CC
0.988

###

Tested on: Bacteroides stercoris
Assay: growth AUC relative to DMSO control (median of replicates) (fraction); higher = more growth (less inhibition), active = hit call of the paper
Conditions: 20 µM; 24 h
Listed next: entries and their corresponding growth AUC.

// query growth AUC value for entry CCOCN(C(=O)C(=O)O)c1c(C)cccc1CC
1.02 (inactive)

// query growth AUC value for entry NC(=O)c1c(Cl)cccc1Cl
1.06 (inactive)

// query growth AUC value for entry CCCCOCCOC(=O)COc1ccc(Cl)cc1Cl
0.952 (inactive)

// query growth AUC value for entry CCCCCCCC/C=C\CCCCCCCC(N)=O
0.875 (inactive)

// query growth AUC value for entry CCNc1nc(NC(C)CC)nc(OC)n1 (stereo unspecified)
1.29 (inactive)

// query growth AUC value for entry COc1cc(OC)nc(NC(=O)NS(=O)(=O)c2c(Cl)nc3ccccn23)n1
1.1 (inactive)

###

System: Bacteroides clarus
Assay: growth AUC relative to DMSO control (median of replicates) (fraction); higher = more growth (less inhibition), active = hit call of the paper;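 active = AUC reduced over 20% with Padj below 0.05 in at least 2 of 3 replicates; inactive = otherwise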
Details: 20 µM; 24 h
Pick from active, inactive when you respond.

Would you please look over these solved cases?
1. CN(C(=O)NC(C)(C)c1ccccc1)c1ccccc1 = inactive
2. COCCCNc1nc(NC(C)C)nc(SC)n1 = inactive
3. CCOC(=O)[C@@H](C)Oc1ccc(Oc2nc3ccc(Cl)cc3o2)cc1 = inactive
4. COC(=O)[C@@H](C)Oc1ccc(Oc2ncc(C(F)(F)F)cc2Cl)cc1 = inactive
5. CCc1cccc(C)c1N(C(=O)C(=O)O)C(C)COC (stereo unspecified) = inactive

Tell me the assay call for CN(C)C(=O)Nc1ccccc1 please.
inactive

Tell me the assay call for CS(=O)(=O)c1ccc(C(=O)O)c(N)c1 please.
inactive

Tell me the assay call for CCOC(=O)NCCOc1ccc(Oc2ccccc2)cc1 please.
inactive

Tell me the assay call for CCc1nc2ncnn2c(N)c1CCCC(=O)O.Cl please.
inactive

###

Tested on: Bacteroides thetaiotaomicron
Experiment: growth AUC relative to DMSO control (median of replicates) (fraction); higher = more growth (less inhibition), active = hit call of the paper
Conditions: 20 µM; 24 h
Listed next: entries and their corresponding growth AUC.
Give only the figure.

Solved cases below.
1) CC(C)N(C)S(=O)(=O)NC(=O)c1cc(-n2c(=O)cc(C(F)(F)F)[nH]c2=O)c(F)cc1Cl = 1
2) CCCCCCCC(=O)Oc1c(Br)cc(C#N)cc1Br = 1.04
3) Cc1ccc(Cl)cc1 = 1.01
4) N#Cc1c(N)nc(NC2CC2)nc1N = 1.01
5) O=[N+](Nc1ccccc1)c1ccccc1 = 0.991
6) COC(=O)c1ccc(C)cc1C1=NC(C)(C(C)C)C(=O)N1 (racemic) = 0.976

// query growth AUC value for entry O=[N+]([O-])c1ccc(Oc2c(Cl)cc(Cl)cc2Cl)cc1
0.971

// query growth AUC value for entry Cn1cc(C(=O)Nc2ccc(F)cc2-c2ccc(Cl)c(Cl)c2)c(C(F)F)n1
0.872
